# Assay Text: purified protein yield per well (BCA); higher = higher soluble expression
Cut-off 90 µg on purified protein yield per well, inclusive. At or above means criterion met; below means criterion not met.

# input Exam item: decide whether the reported purified protein yield per well for VQIGPAPTSAALNKDGSFSVSSSSVSMLSARGFGSGTIYYPSTSGQYGVIAVCPGFTGTSSSISWFARRLASHGFVTIAMNTTTTLDQPASRATQLAAALKYVLNSSSSTVRSRIRAADRGVAGHSMGGGGTLIASQSDSTLRVGIPMTPWNLSTNFSSVKVPQMIFGADGDTIAPYASHARPFYNSLSKAPKAYGLLKSATHFTPNATDQRIGRYGVAFAKRFVDGDTRYSPFLCGSEHNSYATSSKFATYLSNCPY [ESM148] is at least 90 µg.
# output criterion not met

# input Exam item: decide whether the reported purified protein yield per well for ADNPYQRGPDPTAASIAAVTGPFATASVTVPRGNGFGGGVIYYPTDTSQGTFGGIAISPGLNGTWPGIAWLGPRLASQGFVVFGIETNNLNDSPTSRGTQLLAALDYLTGSSSVRTRVDAGRLAVAGHSMGGGGALDAALRRPSLRATIGNAPHLPSGSLANDRVPTLIYAMQNDTLVPPSRLTSLYNTVPATTERGYLEITGAGHNYIGQPSTILARTMIPWLKIFVDDDARYSQFLCPLTDRSGISQYQSSCPLITTSPTTGPTAQPTTAAPTTTPTTPPVGGPCEATHRTVNSWSGGYQGEVTVRAGSAAINGWTVSWTLGSGQTINQVWGGALTASGTAATVRNETWNGPVAAGASTTFGYIATGNAPTQPLACSAR [ESM060] is at least 90 µg.
# output criterion met

# input Exam item: decide whether the reported purified protein yield per well for DSQNPYERGPVPTLESITAESGPFAIGSVTVPAGSGQGFNSGTVYYPTDTSKGTFGAIAIMPGFLASQSDIAWYGPRLASHGFVVMTLNTSALWDFPADRSRQQLAALTYLTAQSTVKNRIDPGRLAVMGWSMGGGGSLQSAASTPSLKAAIPLAPWDLSNVSSRITVPTMIFGADGDTVASVDDFARPFYNGLANAPDKSLIVLKGTDHFTFAKPNTTIARYSVSWLKRFVDNDTRYDQFLCPTPNDPNTVVLQITCPL [DP028] is at least 90 µg.
# output criterion not met

# input Exam item: decide whether the reported purified protein yield per well for DEIGSAPTAATITGNGSFATASTSVSSPSGFRGGQVYYPSTAGTYPVIAVVPGYLSYWSSISWLGPRLASWGFVVVGIETNSIYDQPASRGSQLRAALTWAVNTSPTTVRSRVDANRQGVAGWSMGGGGSLEALKADTSGRIKAAVPMAPWNSDQSWPEVTESVAIVGGQSDSVAPVSSHSIPFYNSLAGPKSYVELAGASHFFPNSDNPSLSRMIVSWFKRWINNDTRFTTFTCGFTGSAISSFRTNAC [ESM178] is at least 90 µg.
# output criterion not met

# input Exam item: decide whether the reported purified protein yield per well for DPTAFAVHGPDPTAQSVQAQRGPYATSRTTVSSGTGFNRGTIYYPTTTSEGTFSAVAVIPGFTESESTMSWYGTTLSSHGFVVFTLEAEGGLDFPDARADQLLAALDYLVNSSSVRDRVDRNRLGVMGHSMGGGGTLEAANERPSLRAAIPLAAWHNTKNFPQVQAATLVISAEGDSVASPASHSEPFYQGLRSAEKAYLELNNGNHFTTNSYTPTVTKYAVSWLKRFLDDDTRYSQFLCPPPPPDSNINEYRHTCPV [DP055] is at least 90 µg.
# output criterion not met

# input Exam item: decide whether the reported purified protein yield per well for ATGPSSPCSNCTRGPDPTVASLKSATGPYTTAKFSVSGYLKGFGDSTVYYPTNASGKMGAIAVIPGYVSYEDSIKWWGPRLASHGFVVMTMNTSTIYDQPDSRATQLSKALDYMIAQSGSSSSPIYNKVDSTRLGVIGWSMGGGGTLKLSTQRSINAIIPQAPYYAGSNSFNTIKTPALILACGADAVAPVGVHASPFYNRIPGTTPKAYLEIYGGSHFCANSGYPNEDLLGMYGIAWMKRFIDFDSRYSKFLCGPNHTADLNISEYRQNCNY [DP078] is at least 90 µg.
# output criterion not met

# input Exam item: decide whether the reported purified protein yield per well for ADNPYQRGPDPTLASVSAQRGTFATAQVAVPAGDGFGGGMIYYPTDTSQGTFGAVAIVPGYTARFSVEEAWMGHWLASFGFVVIGVETNSTNDFDTARGTQLLAALDYLTQRSSVRDRVDASRQSVVGHSMGGGGALYAAGQRASLKAAVGLAPYKPSGNPTNVRVPTMIISGQNDTVVTPSYATGLYNTLPATTESAYMEFTGADHLFPTRANTLEMRILIPWLKIFVDSDNRYSQFLCPLQDSTGIRGYRSTCPFLPNPTTSPSTTAPTTPPTTPPTTPPTGACSATYRTVNSWPGGFQGEVTVSAGSTPVDGWAVRWTLASGQAVTQVWNGALSVSGSAVTVRNTTYNGSLGANASTTFGFLASGSPTPVSLTCTSP [ESM033] is at least 90 µg.
# output criterion met

# input Exam item: decide whether the reported purified protein yield per well for DEIGQAPTASNITGNGSFATTSASISSTVAGFGGGRVYYPTATGTYPVIAISPGFTATWSSLSWIGPRLSSWGFVVVGIETNSIYDQPGSRGSQLLAALNWAVSSSPTAVRSRVDGSRRGVAGHSMGGGGTLEALAADTSGLVKAGVPLAPWNSDKTWNNVSEPVLIVGGQSDTIAPVSSHSVPFYNTLAGPKTYVELTGASHFFPQSSNATTSRALVSWFKRWLNQDSRFTPFTCGFSGAAVSSFRTNAC [ESM093] is at least 90 µg.
# output criterion met

# input Exam item: decide whether the reported purified protein yield per well for QACDSLLLESITNPGPFIVNTIDESLGIRNGPGYNGGTIFYPDHIGNFSSIVLVPGFMNSEFTIQNWGAFFASHGIITMTIGTNALTDTHIQRRDALLDAIVSLKAENERLGSPLYGSIDTSSIAVGGFSKGGGGAMLVPAIDPNIKAIISLYPWLENPTSSDLNHSVPVIIISGELDLIAPPFIHADIHYNLLPNTTMKLKYEVALGSHDIISGPNAGNGEVGVRVISWLQNFLLDDSCYCPILTLIPNTSSSYTTNILCNNTSINISSFNTGSDKKLLKITDIFGRETKEILNKYLLFIYDDGTVEKNIVLE [TEP022] is at least 90 µg.
# output criterion not met
